Each entry below carries its recorded melting point.

Example entries begin here.
# compound, observedValue
measured = [
    ("CNC(=O)C(C)Oc1ncn(-c2ccccc2)n1 (configuration not stated)", "134 to 135 °C"),
    ("COC1(c2ccccc2)CCc2c(C)c(O)c(C)c(C)c2O1 (configuration not stated)", "190 to 192 °C"),
    ("Nc1cn(-c2cncnc2)nc1Cl", "146 to 148 °C"),
    ("CCc1cccc2c(/C=C/C(=O)N3CCCCC3)cc(OC)c(OCOC)c12", "85 to 86 °C"),
    ("O=C(O)CCC(=O)NNc1ccnc2c(NC(=O)c3c(Cl)cccc3Cl)cccc12", "166 to 170 °C"),
]

What melting point value was documented for this compound, Cc1nc2c(N)nc3ccccc3c2n1CCCCNC(=O)Nc1ccccc1 ?
172 °C

What melting point value was documented for this compound, CCC(Nc1ncnc2c1ncn2C1OC(CO)C(O)C1O)c1ccccc1 (configuration not stated) ?
73 to 84 °C

What melting point value was documented for this compound, O=C(c1ccccc1Cl)c1cc(Cl)ccc1C#CCN1C(=O)c2ccccc2C1=O ?
144 to 145 °C
